- Test system: UACC-257
- measurementNotes: NCI tumour cell line growth inhibition, 48 h
Activity calls are given as the source filed them. Cut-off read from the data, not from the text of the source: active = GI50 up to about 1.1 µM and inactive = higher.
Outcomes: yes (active), no (inactive)

compound: C[N+](C)(Cc1ccc(NC(=O)CCCC(=O)ON2C(=O)CCC2=O)cc1)c1ccccc1
answerLabel: yes
--
compound: Cn1c2ccccc2c2c(-c3ccccc3)cc3c(c21)C(=O)C=CC3=O
answerLabel: no
--
compound: CCN1CCC(O)(/C=C/c2ccc(Cl)c(Cl)c2)C(C(=O)/C=C/c2ccc(Cl)c(Cl)c2)C1 (stereo not drawn)
answerLabel: yes

---

- Tested on: OVCAR-5
- measurementNotes: NCI tumour cell line growth inhibition, 48 h
Calls of active or inactive are those of the source. Cut-off read from the data, not from the text of the source: active = GI50 up to about 1.1 µM and inactive = higher.
Below is a list of entries, each paired with its recorded GI50 value.
recordedMetric: GI50

compound: N=C1OC(CN2CCN(c3ccccc3)CC2)CN1C(=S)Nc1ccccc1 (stereo not drawn)
val: 97.5 µM (inactive)
//
compound: O=c1c(Cl)c(Cl)cnn1CCCl
val: 16.5 µM (inactive)
//
compound: O=C(NO)C(=O)Nc1cc(Cl)ccc1Cl
val: > 100 µM (inactive)
//
compound: CC(=O)OCC1OC(n2cc(F)c(=O)[nH]c2=O)C(NC(=O)OCc2ccccc2)C(OC(C)=O)C1OC(C)=O (stereo not drawn)
val: > 100 µM (inactive)
//
compound: COc1ccc(-c2[nH]c3c4c(nc5c(c24)C(=O)CC(C)(C)C5)CC(C)(C)C3)cc1
val: > 100 µM (inactive)
//
compound: CCCCc1c(O)nc(Nc2nc3ccccc3[nH]2)[nH]c1=O
val: > 100 µM (inactive)
//
compound: O=C1C2=C(c3ccccc31)C(c1ccc(Cl)cc1)NC(S)=N2 (stereo not drawn)
val: 46.7 µM (inactive)
//
compound: COC(=O)c1c(OC(C)=O)ccc2c1c1c(n2Cc2ccccc2)C(=O)c2ccccc2C1=O
val: 20.1 µM (inactive)
//
compound: COc1ccc(NC(=O)/C(=N/O)C(C)=O)cc1
val: > 100 µM (inactive)
//
compound: CC1(C)CC2(C)CC1CC2(O)c1ccccc1 (stereo not drawn)
val: > 100 µM (inactive)
//
compound: COc1cc(Nc2nc3ccc(C(F)(F)F)cc3nc2C(=O)O)cc(OC)c1OC
val: 36.1 µM (inactive)
//
compound: Cn1cc(C(=O)c2ccccc2)cc(C(=O)c2ccccc2)c1=O
val: > 100 µM (inactive)
//
compound: CSc1nc(O)c(C#N)c(-c2ccccc2)n1
val: > 100 µM (inactive)

Every entry's value here was drawn from ChEMBL document CHEMBL1201862.
